- target: T1, recombinant human IL-6R sR (R&D systems) (human, UniProt P08887 20-358)
- T1 construct: Bought soluble receptor; also called rhIL-6sR; rhIL-s6R
- T1 sequence (looked up): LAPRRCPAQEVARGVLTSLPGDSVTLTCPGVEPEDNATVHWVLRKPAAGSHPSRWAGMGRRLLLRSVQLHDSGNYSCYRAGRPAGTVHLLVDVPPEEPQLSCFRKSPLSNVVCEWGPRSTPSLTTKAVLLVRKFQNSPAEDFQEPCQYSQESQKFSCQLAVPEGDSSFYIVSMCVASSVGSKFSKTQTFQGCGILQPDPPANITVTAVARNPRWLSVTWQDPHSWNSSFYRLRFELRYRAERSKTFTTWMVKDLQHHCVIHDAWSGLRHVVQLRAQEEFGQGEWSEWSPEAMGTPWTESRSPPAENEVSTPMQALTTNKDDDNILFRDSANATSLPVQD
- protocol: SPR (Biacore T100), antibody captured on Protein A, rhIL-6sR as analyte, 25 C
measured-endpoint: koff (s⁻¹)
# unit: s⁻¹ | format: bare number

Consider the worked cases shown below.
Lookup: Which koff is listed for RDC-6 (antibody, V domains shown, also called RDC-6H/L(WT)) VH: QVQLQESGPGLVRPSQTLSLTCTVSGYSITSDHAWSWVRQPPGRGLEWIGYISYSGITTYNPSLKSRVTMLRDTSKNQFSLRLSSVTAADTAVYYCARILARITAMDYWGQGSLVTVSS VL: DIQMTQSPSSLSASVGDRVTITCRASQDISSYLNWYQQKPGKAPKLLIYYTSRLHSGVPSRFSGSGSGTDFTFTISSLQPEDIATYYCQQGNTLPYTFGQGTKVEIK ?
Found: 3.5e-05

Lookup: Which koff is listed for RDC-11 (antibody, V domains shown, also called H(WT)/RDC-11L) VH: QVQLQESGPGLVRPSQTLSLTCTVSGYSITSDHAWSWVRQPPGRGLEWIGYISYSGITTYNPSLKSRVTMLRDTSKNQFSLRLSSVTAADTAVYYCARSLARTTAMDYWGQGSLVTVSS VL: DIQMTQSPSSLSASVGDRVTITCRASQDISSYLNWYQQKPGKAPKLLIYYTSRLHSGVPSRFSGSGSGTDFTFTISSLQPEDIATYYCGQGNRLPYTFGQGTKVEIK ?
Found: 7e-05

Lookup: Which koff is listed for RDC-2 (antibody, V domains shown, also called RDC-2H/L(WT)) VH: QVQLQESGPGLVRPSQTLSLTCTVSGYSITSDHAWSWVRQPPGRGLEWIGYISYSGITTYNPSLKSRVTMLRDTSKNQFSLRLSSVTAADTAVYYCARVLARATAMDYWGQGSLVTVSS VL: DIQMTQSPSSLSASVGDRVTITCRASQDISSYLNWYQQKPGKAPKLLIYYTSRLHSGVPSRFSGSGSGTDFTFTISSLQPEDIATYYCQQGNTLPYTFGQGTKVEIK ?
Found: 2.5e-05

Lookup: Which koff is listed for RDC-4 (antibody, V domains shown, also called RDC-4H/L(WT)) VH: QVQLQESGPGLVRPSQTLSLTCTVSGYSITSDHAWSWVRQPPGRGLEWIGYISYSGITTYNPSLKSRVTMLRDTSKNQFSLRLSSVTAADTAVYYCARTLARATAMDYWGQGSLVTVSS VL: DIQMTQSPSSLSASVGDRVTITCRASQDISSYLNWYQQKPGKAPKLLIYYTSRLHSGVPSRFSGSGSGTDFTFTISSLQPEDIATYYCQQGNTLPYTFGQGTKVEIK ?
Found: 2.9e-05

Lookup: Which koff is listed for RDC-3 (antibody, V domains shown, also called RDC-3H/L(WT)) VH: QVQLQESGPGLVRPSQTLSLTCTVSGYSITSDHAWSWVRQPPGRGLEWIGYISYSGITTYNPSLKSRVTMLRDTSKNQFSLRLSSVTAADTAVYYCARILARATAMDYWGQGSLVTVSS VL: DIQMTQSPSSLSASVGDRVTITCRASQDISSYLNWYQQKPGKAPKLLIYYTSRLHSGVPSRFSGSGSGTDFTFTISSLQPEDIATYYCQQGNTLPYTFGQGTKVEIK ?
Found: 3.7e-05

---
Lookup: Which koff is listed for RDC-8 (antibody, V domains shown, also called RDC-8H/L(WT)) VH: QVQLQESGPGLVRPSQTLSLTCTVSGYSITSDHAWSWVRQPPGRGLEWIGYISYSGITTYNPSLKSRVTMLRDTSKNQFSLRLSSVTAADTAVYYCARLLARITAMDYWGQGSLVTVSS VL: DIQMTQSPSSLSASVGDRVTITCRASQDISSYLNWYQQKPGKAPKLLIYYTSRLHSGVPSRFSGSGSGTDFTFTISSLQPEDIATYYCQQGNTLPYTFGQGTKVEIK ?
Found: 3.6e-05

Lookup: Which koff is listed for RDC-7 (antibody, V domains shown, also called RDC-7H/L(WT)) VH: QVQLQESGPGLVRPSQTLSLTCTVSGYSITSDHAWSWVRQPPGRGLEWIGYISYSGITTYNPSLKSRVTMLRDTSKNQFSLRLSSVTAADTAVYYCARTLARITAMDYWGQGSLVTVSS VL: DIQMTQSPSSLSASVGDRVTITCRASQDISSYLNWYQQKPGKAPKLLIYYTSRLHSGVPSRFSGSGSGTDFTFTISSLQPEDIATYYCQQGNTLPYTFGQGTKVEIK ?
Found: 4.2e-05

// data source = patent US20150284465A1
